biological target: ITK (Homo sapiens, UniProt Q08881); assay: ITK degradation HiBiT assay; assay type: cell-based; parameters: expressed in transfected cells; host or cells: Molt4 (ATCC CRL-1552), monoclonal clone 1C10, engineered to carry the HiBiT tag; conditions: MOLT-4, C-terminal HiBiT-tagged Molt4 cells, 4 hrs
Entries annotated with measured Dmax
Put your answer as a value accompanied by its unit after it.

- C[C@@]12Cc3[nH]nc(-c4cc5cc(F)c(C(=O)N6CCN(C[C@H]7CCN(c8ccc(C9CCC(=O)NC9=O)cc8)C7)CC6)cc5[nH]4)c3C[C@@H]1C2(F)F (stereo partly drawn) [Compound 145]: 75%
- C[C@@H]1CN(C(=O)c2ccc3cc(-c4n[nH]c5c4C[C@@H]4C(F)(F)[C@]4(C)C5)[nH]c3c2)C[C@H](C)N1CC1CCN(c2ccc(C3CCC(=O)NC3=O)cc2)CC1 (stereo partly drawn) [Compound 158]: 88%
- CN(C(=O)CN1CCC2(CC1)CCN(c1ccc3c(c1)C(=O)N(C1CCC(=O)NC1=O)C3=O)C2)c1ccc2cc(-c3n[nH]c4c3C[C@@H]3C(F)(F)[C@]3(C)C4)[nH]c2c1 (stereo partly drawn) [Compound 72]: 86%
- C[C@@]12Cc3[nH]nc(C(=O)Nc4cnn(CC5CCN(C(=O)C6CCN(c7ccc(C8CCC(=O)NC8=O)cc7)CC6)CC5)c4)c3C[C@@H]1C2(F)F (mixture of isomers) [Compound 173]: 87%
- COC[C@@]1(C)CCc2c(-c3cc4ccc(C(=O)N5CCN(CC6CCN(c7ccc(C8CCC(=O)NC8=O)cc7)CC6)CC5)cc4[nH]3)n[nH]c2C1 (stereo partly drawn) [Compound 140]: 84%

**Query** Name the recorded Dmax for Cc1nc(N2CCC(CN3CCN(C(=O)c4ccc5cc(-c6n[nH]c7c6CCC(C)(C)C7)[nH]c5c4)CC3)CC2)ccc1C1CCC(=O)NC1=O (stereo not drawn) [Compound 181] .
**Result** 61%

**Query** Can you share its Dmax? I mean this compound: COC[C@@]1(C)CCc2c(-c3cc4ccc(C(=O)N5CCN(CC6CCN(c7ccc(C8CCC(=O)NC8=O)cc7)CC6)CC5)cc4[nH]3)n[nH]c2C1 (mixture of isomers) [Compound 224]
**Result** 84%

**Query** Item CC1(C)CCc2c(-c3cc4cc(F)c(C(=O)N5CCN(CC6CCN(c7ccc(C8CCC(=O)NC8=O)cc7)CC6)CC5)cc4[nH]3)n[nH]c2C1 (stereo not drawn) [Compound 137] has what recorded Dmax?
**Result** 81%

**Query** Name the reported Dmax value associated with the compound C[C@@H](C(=O)N(C)c1ccc2cc(-c3n[nH]c4c3CCC(C)(C)C4)[nH]c2c1)N1CCN(C[C@@H]2CCN(c3ccc4c(c3)n(C)c(=O)n4C3CCC(=O)NC3=O)C2)CC1 (stereo partly drawn) [Compound 4]
**Result** 64%

**Query** Please give the measured Dmax for this compound: Cn1c(=O)n(C2CCC(=O)NC2=O)c2cccc(N3CCC(C(=O)N4CCC(n5cc(NC(=O)c6n[nH]c7c6C[C@@H]6C(F)(F)[C@]6(C)C7)cn5)CC4)CC3)c21 (mixture of isomers) [Compound 171]
**Result** 88%

**Query** Give the measured Dmax of C[C@@]12Cc3[nH]nc(-c4cc5cc(F)c(C(=O)N6CCN(CC7CCN(c8ccc(C(=O)N[C@H]9CCC(=O)NC9=O)nc8)CC7)CC6)cc5[nH]4)c3C[C@@H]1C2(F)F [Compound 144] .
**Result** 78%

**Query** Item Cn1c(=O)n(C2CCC(=O)NC2=O)c2ccc(N3CCC(CN4CCC5(CC4)CCN(c4ccc6cc(-c7n[nH]c8c7CCC(C)(C)C8)[nH]c6c4)C5=O)CC3)cc21 (stereo not drawn) [Compound 14] has what recorded Dmax?
**Result** 89%

---

target: ITK (Homo sapiens); assay: ITK degradation MSD (Meso Scale Discovery) assay; format: cell-based; set-up: either human Jurkat (Clone E6-1 ATCC TIB-152) or Motl4 (ATCC CRL-1552), were plated; endogenous in cells; host or cells: Jurkat clone E6-1 (ATCC TIB-152) or Molt4 (ATCC CRL-1552); conditions: Jurkat or Molt4 cells, 4 or 6 hrs
Let's look at some compounds and their measured log10(DC50).
Heads up: the numbers are on a log10 scale; they represent DC50 in nM.

**Query** GET /values?readout=log10(DC50)&system=ITK (Homo sapiens)&item= C[C@@H](C(=O)N(C)c1ccc2cc(-c3n[nH]c4c3CCC(C)(C)C4)[nH]c2c1)N1CCN(C(=O)C2CN(C3CCN(c4ccc5c(c4)C(=O)N(C4CCC(=O)NC4=O)C5=O)CC3)C2)CC1 (some centres unmarked) [Compound 34]
**Result** 0.00

**Query** Given the entry CN(C(=O)CCC1CCN(c2ccc3c(c2)C(=O)N(C2CCC(=O)NC2=O)C3=O)C1)c1ccc2cc(-c3n[nH]c4c3CCC(C)(C)C4)[nH]c2c1 (centres unmarked) [Compound 1] , what log10(DC50) was observed with ITK (Homo sapiens)?
**Result** 0.85

**Query** Please provide the recorded log10(DC50) for C[C@@]12Cc3[nH]nc(C(=O)Nc4cnn([C@H](c5ccccc5)C5CN(C(=O)CCOCCOCCOCCOCCOCCOCCOCCOCCNc6cccc7c6C(=O)N(C6CCC(=O)NC6=O)C7=O)C5)c4)c3C[C@@H]1C2(F)F (some centres unmarked) [Compound 30] , tested on ITK (Homo sapiens).
**Result** 1.30

**Query** Checklist item: log10(DC50) tested on ITK (Homo sapiens), entry C[C@@H](C(=O)N(C)c1ccc2cc(-c3n[nH]c4c3CCC(C)(C)C4)[nH]c2c1)N1CCN(CC2CCN(c3ccc(C(=O)NC4CCC(=O)NC4=O)nc3)CC2)CC1 (some centres unmarked) [Compound 7] , value?
**Result** 1.00

**Query** Under ITK (Homo sapiens): log10(DC50) value of C[C@@]12Cc3[nH]nc(C(=O)Nc4cnn([C@H](c5ccccc5)C5CN(C(=O)CCOCCNc6cccc7c6C(=O)N(C6CCC(=O)NC6=O)C7=O)C5)c4)c3C[C@@H]1C2(F)F (some centres unmarked) [Compound 27] ?
**Result** 0.58

---

Attribute: ITK (%) 90 mpk PO, 6 h
molecular target: ITK (Mus musculus, UniProt Q03526); construct: mice were sacrificed and splenocytes were isolated and used to prepare protein lysates; from tissue; host or cells: mouse splenocytes (spleen) after oral dosing; test: Mouse PD assay for ITK degradation (Western blot, splenocytes after oral administration); format: in vivo; conditions: percent ITK remaining in mouse splenocytes relative to vehicle, 90 mpk PO, 6 h
Sequence (Q03526 whole entry): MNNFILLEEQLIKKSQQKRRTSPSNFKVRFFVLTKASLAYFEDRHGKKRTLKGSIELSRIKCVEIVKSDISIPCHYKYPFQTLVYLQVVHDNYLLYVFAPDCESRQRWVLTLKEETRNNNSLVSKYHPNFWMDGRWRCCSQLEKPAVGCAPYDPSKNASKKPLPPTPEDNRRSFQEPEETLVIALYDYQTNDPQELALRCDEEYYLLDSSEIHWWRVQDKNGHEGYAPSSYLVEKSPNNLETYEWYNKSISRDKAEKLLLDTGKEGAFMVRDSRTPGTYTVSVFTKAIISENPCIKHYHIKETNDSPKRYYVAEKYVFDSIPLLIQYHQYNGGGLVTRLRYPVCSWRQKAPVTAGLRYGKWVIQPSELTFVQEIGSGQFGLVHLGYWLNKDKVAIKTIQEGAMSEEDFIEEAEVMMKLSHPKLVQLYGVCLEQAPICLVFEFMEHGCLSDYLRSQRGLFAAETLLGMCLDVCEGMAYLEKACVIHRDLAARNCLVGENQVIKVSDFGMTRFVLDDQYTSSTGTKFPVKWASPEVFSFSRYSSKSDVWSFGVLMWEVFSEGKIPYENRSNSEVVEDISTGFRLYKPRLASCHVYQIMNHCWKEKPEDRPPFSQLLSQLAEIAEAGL

- CN(C(=O)CCC1CCN(c2ccc(C3CCC(=O)NC3=O)cn2)CC1)c1ccc2cc(-c3n[nH]c4c3C[C@@H]3C(F)(F)[C@]3(C)C4)[nH]c2c1 (some centres unmarked) [Compound 21]: 76%
- C[C@@H](C(=O)N(C)c1ccc2cc(-c3n[nH]c4c3CCC(C)(C)C4)[nH]c2c1)N1CCN(CC2CCN(c3ccc(C4CCC(=O)NC4=O)cn3)CC2)CC1 (some centres unmarked) [Compound 10]: 11%
- Cn1c(=O)n(C2CCC(=O)NC2=O)c2cccc(N3CCC(CN4CCC5(CC4)CCN(c4ccc6cc(-c7n[nH]c8c7CCC(C)(C)C8)[nH]c6c4)C5=O)CC3)c21 (centres unmarked) [Compound 13]: 15%
- C[C@@H](C(=O)N(C)c1ccc2cc(-c3n[nH]c4c3CCC(C)(C)C4)[nH]c2c1)N1CCN(CC2CCN(c3ccc(C(=O)NC4CCC(=O)NC4=O)nc3)CC2)CC1 (some centres unmarked) [Compound 7]: 100%

**Query** Need ITK (%) 90 mpk PO, 6 h of Cn1c(=O)n([C@H]2CCC(=O)NC2=O)c2cccc(N3CCC(CN4CCN(C(=O)c5ccc6cc(-c7n[nH]c8c7CCC(C)(C)C8)[nH]c6c5)CC4)CC3)c21 [Compound 46] , thanks.
**Result** 102%

---

# Dmax values compiled below
Target: ITK (Homo sapiens, UniProt Q08881)
Sequence (Q08881 1-620): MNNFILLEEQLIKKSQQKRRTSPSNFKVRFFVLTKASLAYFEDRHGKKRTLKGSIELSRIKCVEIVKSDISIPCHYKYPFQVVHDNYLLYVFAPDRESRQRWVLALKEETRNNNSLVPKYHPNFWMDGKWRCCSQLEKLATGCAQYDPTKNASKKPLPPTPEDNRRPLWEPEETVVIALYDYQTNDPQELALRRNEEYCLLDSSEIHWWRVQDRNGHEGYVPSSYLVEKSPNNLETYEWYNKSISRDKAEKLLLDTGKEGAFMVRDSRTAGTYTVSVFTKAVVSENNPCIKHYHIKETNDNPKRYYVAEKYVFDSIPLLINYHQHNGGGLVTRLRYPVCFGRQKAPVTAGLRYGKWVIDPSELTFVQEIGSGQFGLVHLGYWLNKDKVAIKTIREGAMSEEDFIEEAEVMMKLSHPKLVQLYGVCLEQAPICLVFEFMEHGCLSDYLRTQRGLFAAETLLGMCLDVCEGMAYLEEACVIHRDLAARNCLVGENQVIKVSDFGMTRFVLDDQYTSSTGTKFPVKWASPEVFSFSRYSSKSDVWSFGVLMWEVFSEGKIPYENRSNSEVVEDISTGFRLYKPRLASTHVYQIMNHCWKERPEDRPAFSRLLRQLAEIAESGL
Assay: ITK degradation HiBiT assay
Assay type: cell-based
Design: expressed in transfected cells; host or cells: Molt4 (ATCC CRL-1552), monoclonal clone 1C10, engineered to carry the HiBiT tag
Conditions: MOLT-4, C-terminal HiBiT-tagged Molt4 cells, 4 hrs
# number only, unit % dropped from output

Some entries whose results are on file:
• C[C@@]12Cc3[nH]nc(-c4cc5ccc(C(=O)N6CCN(CC7CCN(c8ccc(C(=O)N[C@H]9CCC(=O)NC9=O)nc8)CC7)CC6)cc5[nH]4)c3C[C@@H]1C2(F)F = 81
• C[C@@]12Cc3[nH]nc(C(=O)Nc4cnn(C5CCN(CC6CCN(c7ccc(C8CCC(=O)NC8=O)cn7)CC6)CC5)c4)c3C[C@@H]1C2(F)F (mixture of isomers) = 87

# ---- query compound ----
**Query** Look up Dmax: C[C@@]12Cc3[nH]nc(C(=O)Nc4cnn(C5CCN(C(=O)CC6CCN(c7ccc(C8CCC(=O)NC8=O)cn7)CC6)CC5)c4)c3C[C@@H]1C2(F)F (mixture of isomers)
**Result** 88
